Experiment: binders of probe aFST on microarray, primary screen, stem cell growth factor project, biochemical, small-molecule microarray, fluorescence 635/667 (AID 1086);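 note: score merges 667 nm fluorescence with signal-to-noise of each printed compound spot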
Conditions: higher = more signal
I would appreciate it if you labelled entries MET when composite z-score is 0.2 or higher, otherwise NOT MET.

Worked examples, 5 compounds total:
CC(C)=CCCC(C)=CCON=C1C[C@@H](O)[C@@H](O)[C@@H]2[C@@H]3C(=O)N(c4ccc(F)cc4F)C(=O)[C@@H]3CC[C@@H]12 :: MET
CC(C)=CCCC(C)=CCON=C1C[C@@H](O)[C@@H](O)[C@@H]2[C@@H]3C(=O)N(Cc4ccccc4)C(=O)[C@@H]3CC[C@@H]12 :: NOT MET
CC(CCN1CCCc2nc(C)c(C)cc21)=NOC(C)CN1CCCCc2nc(C)c(C)cc21 (stereo not given) :: MET
O=C1[C@H]2[C@H]3[C@H](O)[C@H](O)CC(=NOC[C@@H](O)COCc4ccco4)[C@H]3CC[C@H]2C(=O)N1Cc1ccccc1 :: NOT MET
CCOC(=O)NN=C1C[C@@H](O)[C@@H](O)[C@@H]2[C@@H]3C(=O)N(c4cccc(Oc5ccccc5)c4)C(=O)[C@@H]3CC[C@@H]12 :: NOT MET

Qu. Hi team, for `C[C@@H](ON=C1[C@H]2CCn3c(=O)n(-c4ccccc4)c(=O)n3[C@H]2[C@H](O)[C@@H]2O[C@H]12)c1cn([C@@H]2COC[C@H]2O)nn1` , is the recorded composite z-score at or above 0.2?
Ans. MET

Qu. Exam item: decide whether the reported composite z-score for `COc1ccc(COC(=O)NN=C2C[C@@H](O)[C@@H](O)[C@@H]3[C@@H]4C(=O)N(C5CCCCC5)C(=O)[C@@H]4CC[C@H]23)cc1` is at least 0.2.
Ans. MET

Qu. Is the recorded value of composite z-score equal to or greater than 0.2 for this compound? `Cn1c(=O)n2n(c1=O)[C@H]1[C@H](O)[C@@H]3O[C@@H]3C(=O)[C@H]1CC2`
Ans. MET

Qu. Determine whether this compound has composite z-score no lower than 0.2: `COC(=O)CC=C[C@@H](C)[C@@H](C=NO[C@@H]1O[C@H](COC(C)=O)[C@@H](OC(C)=O)[C@H](OC(C)=O)[C@H]1OC(C)=O)OC`
Ans. MET

Qu. Is composite z-score at least 0.2? Consider COC(=O)[C@H](C)NC(=O)CCC1CC(OC(=O)NCc2ccc3c(c2)OCO3)CC2(CCCC(COC(=O)NCc3cccc(C(F)(F)F)c3)O2)O1 (stereo not given in full)
Ans. MET

Qu. composite z-score >= 0.2 for `COC(=O)CC=C[C@@H](C)[C@@H](C=NO[C@@H](C)c1cn([C@H](CO)Cc2ccccc2)nn1)NS(=O)(=O)c1ccc(C)cc1` ?
Ans. MET

###

Target: Dickkopf-related protein 1 (Homo sapiens)
Experiment: DKK1 binders on small-molecule microarrays, primary screen, biochemical, small-molecule microarray, 635 nm fluorescence scan (AID 1106);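 note: score merges emission near 667 nm with signal to noise over three replicate slides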
Settings: DKK1 binding, higher = more signal
Here, each record is paired with measured composite z-score data.

CCOC(=O)[C@H](CC(C)C)NC(=O)CCC1CC(OC(=O)NCc2cccc3ccccc23)CC2(CCCC(COC(=O)NCC3CCCCC3)O2)O1 (some centres undefined) :: 0.6
CC(C)(C)N1C(=O)[C@H]2[C@H]3[C@H](O)C=CC(=O)[C@@H]3CC[C@H]2C1=O :: 0.715
C[C@H]1Cc2c(COc3ccccc3)nc3c(c2CO1)CN(CCOc1ccccc1)CC3 :: 0.538

Pending molecule:
Data point: `C[C@H](ON=C1[C@H]2CCn3c(=O)n(-c4ccccc4)c(=O)n3[C@H]2[C@H](O)[C@@H]2O[C@H]12)c1cn([C@H](CO)Cc2ccccc2)nn1` ; composite z-score = 0.559
